Reference source for all entries: patent US9290496B2

The reader will find reported IC50 values listed item by item below.
- assay-system: EGFR del/T790M (PC9-DRH) (Homo sapiens, UniProt P00533, DEL746-750/T790M)
- Construct: detects endogenous levels of phospho-EGF Receptor (Tyr1068) protein; endogenous in cells
- Sequence (P00533 with tags, fused parts or gaps DEL746-750/T790M): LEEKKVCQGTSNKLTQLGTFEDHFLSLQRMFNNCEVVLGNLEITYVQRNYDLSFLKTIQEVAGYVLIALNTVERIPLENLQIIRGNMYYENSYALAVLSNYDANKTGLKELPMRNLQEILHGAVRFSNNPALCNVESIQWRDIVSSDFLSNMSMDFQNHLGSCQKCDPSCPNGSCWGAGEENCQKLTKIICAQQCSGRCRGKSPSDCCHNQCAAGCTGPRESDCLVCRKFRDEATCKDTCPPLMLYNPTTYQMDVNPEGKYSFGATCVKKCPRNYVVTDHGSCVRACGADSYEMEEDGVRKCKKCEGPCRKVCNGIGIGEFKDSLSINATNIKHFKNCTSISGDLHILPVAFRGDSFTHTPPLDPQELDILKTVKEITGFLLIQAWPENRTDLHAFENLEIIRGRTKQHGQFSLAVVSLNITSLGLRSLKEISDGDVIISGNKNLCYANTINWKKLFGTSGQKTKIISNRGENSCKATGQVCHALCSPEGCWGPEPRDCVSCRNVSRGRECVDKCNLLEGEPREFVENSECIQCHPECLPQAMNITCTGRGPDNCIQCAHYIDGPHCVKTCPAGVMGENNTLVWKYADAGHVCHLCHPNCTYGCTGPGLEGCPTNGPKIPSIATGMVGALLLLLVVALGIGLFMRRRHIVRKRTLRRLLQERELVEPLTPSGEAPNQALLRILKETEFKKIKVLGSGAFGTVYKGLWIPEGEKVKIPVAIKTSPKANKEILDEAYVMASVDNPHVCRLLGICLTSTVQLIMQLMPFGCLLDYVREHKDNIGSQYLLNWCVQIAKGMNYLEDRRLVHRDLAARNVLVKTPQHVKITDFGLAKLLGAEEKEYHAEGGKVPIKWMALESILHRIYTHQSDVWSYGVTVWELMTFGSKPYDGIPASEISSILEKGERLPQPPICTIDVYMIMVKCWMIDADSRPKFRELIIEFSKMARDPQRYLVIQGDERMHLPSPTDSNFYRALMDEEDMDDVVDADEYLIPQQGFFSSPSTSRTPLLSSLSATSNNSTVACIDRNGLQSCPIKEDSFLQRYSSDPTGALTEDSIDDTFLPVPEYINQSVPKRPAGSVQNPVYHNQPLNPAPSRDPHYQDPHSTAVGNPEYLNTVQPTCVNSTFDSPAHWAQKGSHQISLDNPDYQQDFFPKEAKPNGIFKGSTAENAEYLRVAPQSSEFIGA
- method: pEGFR Y1068 ELISA assay, PC9-DRH cells
- measurement-parameters: inhibition of phosphorylation of EGFR at Tyr1068; PC9-DRH cells (dacomitinib resistant); 2 hr compound incubation
Counter-ions that a name gives are not always drawn.
value-type: IC50 (nM)

{"molecule": "C=CC(=O)N[C@H]1CCN(c2nc(Nc3cnn(CCN(C)C)c3)c3ncn(C(C)C)c3n2)C1 [Example 43]", "assay-system": "EGFR del/T790M (PC9-DRH) (Homo sapiens, UniProt P00533, DEL746-750/T790M)", "value-type": "IC50", "reported-result": 18}
{"molecule": "C=CC(=O)NC1(C)CN(c2nc(Nc3ccc(N4CCN(C)CC4)cc3)c3ncn(C(C)C)c3n2)C1 [Example 12]", "assay-system": "EGFR del/T790M (PC9-DRH) (Homo sapiens, UniProt P00533, DEL746-750/T790M)", "value-type": "IC50", "reported-result": 10}
{"molecule": "C=CC(=O)N[C@@H]1CN(c2nc(Nc3cn(C4CCN(C)C4)nc3OC)c3ncn(CC)c3n2)C[C@H]1F (stereo partly drawn) [Example 75]", "assay-system": "EGFR del/T790M (PC9-DRH) (Homo sapiens, UniProt P00533, DEL746-750/T790M)", "value-type": "IC50", "reported-result": 2}
{"molecule": "C=CC(=O)N[C@H]1CCN(c2nc(Nc3ccc(N4CCN(C(C)C)CC4)cc3)c3ncn(C(C)C)c3n2)C1 [Example 36]", "assay-system": "EGFR del/T790M (PC9-DRH) (Homo sapiens, UniProt P00533, DEL746-750/T790M)", "value-type": "IC50", "reported-result": 9}
{"molecule": "C=CC(=O)N[C@H]1CCN(c2nc(Nc3ccc(N4CCN(C)CC4)cc3)c3ncn(C)c3n2)C1 [Example 38]", "assay-system": "EGFR del/T790M (PC9-DRH) (Homo sapiens, UniProt P00533, DEL746-750/T790M)", "value-type": "IC50", "reported-result": 6}
{"molecule": "C=CC(=O)N[C@H]1CCN(c2nc(Nc3ccc(N4CCN(C)CC4)cc3)c3ncn(C(C)C)c3n2)C1 [Example 1]", "assay-system": "EGFR del/T790M (PC9-DRH) (Homo sapiens, UniProt P00533, DEL746-750/T790M)", "value-type": "IC50", "reported-result": 18}
{"molecule": "C=CC(=O)N[C@@H]1CN(c2nc(Nc3cn(CC(C)O)nc3OC)c3ncn(C(C)C)c3n2)C[C@H]1F (stereo partly drawn) [Example 84]", "assay-system": "EGFR del/T790M (PC9-DRH) (Homo sapiens, UniProt P00533, DEL746-750/T790M)", "value-type": "IC50", "reported-result": 3}
{"molecule": "C=CC(=O)N[C@@H]1CN(c2nc(Nc3cn(C4CN(C)C4)nc3OC)c3ncn(C)c3n2)C[C@H]1F [Example 5]", "assay-system": "EGFR del/T790M (PC9-DRH) (Homo sapiens, UniProt P00533, DEL746-750/T790M)", "value-type": "IC50", "reported-result": 8}
{"molecule": "C=CC(=O)NC1(C)CN(c2nc(Nc3cnn(C)c3)c3ncn(C(C)(C)C)c3n2)C1 [Example 8]", "assay-system": "EGFR del/T790M (PC9-DRH) (Homo sapiens, UniProt P00533, DEL746-750/T790M)", "value-type": "IC50", "reported-result": 37}
{"molecule": "C=CC(=O)N[C@H]1CCN(c2nc(Nc3cnn(C4CCN(C)C4)c3)c3ncn(C(C)C)c3n2)C1 (stereo partly drawn) [Example 45]", "assay-system": "EGFR del/T790M (PC9-DRH) (Homo sapiens, UniProt P00533, DEL746-750/T790M)", "value-type": "IC50", "reported-result": 3}
{"molecule": "C=CC(=O)N[C@@H]1CN(c2nc(Nc3cn(CC)nc3OC)c3ncn(C)c3n2)C[C@H]1F [Example 88]", "assay-system": "EGFR del/T790M (PC9-DRH) (Homo sapiens, UniProt P00533, DEL746-750/T790M)", "value-type": "IC50", "reported-result": 1}
{"molecule": "C=CC(=O)N1C[C@@H]2CN(c3nc(Nc4ccc(N5CCN(C)CC5)cc4)c4ncn(C(C)C)c4n3)C[C@@H]2C1 [Example 21]", "assay-system": "EGFR del/T790M (PC9-DRH) (Homo sapiens, UniProt P00533, DEL746-750/T790M)", "value-type": "IC50", "reported-result": 18}
{"molecule": "C=CC(=O)Nc1cccc(Oc2nc(Nc3cnn(C)c3)c3ncn(C(C)C)c3n2)c1 [Example 3, trifluoroacetate]", "assay-system": "EGFR del/T790M (PC9-DRH) (Homo sapiens, UniProt P00533, DEL746-750/T790M)", "value-type": "IC50", "reported-result": 8}
{"molecule": "C=CC(=O)N[C@@H]1CN(c2nc(Nc3ccc(N4CCN(C)CC4)cc3)c3ncn(C(C)(C)C)c3n2)C[C@H]1F [Example 52]", "assay-system": "EGFR del/T790M (PC9-DRH) (Homo sapiens, UniProt P00533, DEL746-750/T790M)", "value-type": "IC50", "reported-result": 6}
{"molecule": "C=CC(=O)N[C@@H]1CN(c2nc(Nc3cn(C4CCN(C)C4)nc3C)c3ncn(C(C)C)c3n2)C[C@H]1F (stereo partly drawn) [Example 65]", "assay-system": "EGFR del/T790M (PC9-DRH) (Homo sapiens, UniProt P00533, DEL746-750/T790M)", "value-type": "IC50", "reported-result": 9}
